Values were extracted from patent US11753446B2.

Here the recorded Hemolysis at 100 μg/mL is given for each entry.
# Tested on: human red blood cells (hRBC)
# RUN_DESCRIPTION: Hemolysis: hemolytic activity at 100 μg/mL, 1 h at 37° C.
# SETUP_CONDITIONS: red cells of human, 1 h, 100
# Method: Lyophilized peptides were weighed on a Microbalance (Mettler MT5) and dissolved in sterile water to a final concentration of 1 mg/mL. Stock solutions were kept at +4° C., light protected. The peptides were tested for their hemolytic activity against human red blood cells (hRBC). […] A value of 0% and 100% cell lyses, respectively, was determined by incubation of hRBC in the presence of PBS containing 0.001% acetic acid and 2.5% Triton X-100 in H2O, respectively. […]
Where a SMILES comes first, the peptide text is derived from it. Bridges are numbered along the chain shown (N, C = ends). Triazole bridges read from a SMILES are 1,4-linked. [ ]: non-standard residue; d: D form. Gly(cPent) = N[C@H](C(=O)O)C1CCCC1; Aha = [N-]=[N+]=NCC[C@H](N)C(=O)O; Tle = CC(C)(C)[C@H](N)C(=O)O; dDab = NCC[C@@H](N)C(=O)O; Orn = NCCC[C@H](N)C(=O)O; Pra = C#CC[C@H](N)C(=O)O; Dab = NCC[C@H](N)C(=O)O; Dap = NC[C@H](N)C(=O)O
Report the value in % with no unit label.

Sample records with Hemolysis at 100 μg/mL:
MOLECULE	Hemolysis at 100 μg/mL / %
CC(C)C[C@@H]1NC(=O)[C@H](CCN)NC(=O)[C@@H](CCN)NC(=O)[C@H](CCCN)NC(=O)[C@H](CC(N)=O)NC(=O)[C@H](Cc2ccc(O)cc2)NC(=O)[C@@H]2CSSC[C@H](NC(=O)[C@H](C(C)(C)C)NC(=O)[C@H](CO)NC1=O)C(=O)N[C@@H](C(C)C)C(=O)N[C@H](CCN)C(=O)N[C@@H](CCCNC(=N)N)C(=O)N[C@@H](CC(C)C)C(=O)N2 [Example 4] (cyclo(CV[dDab]RLCYN[Orn][dDab][Dab]LS[Tle]); disulfide 1-6)	4
CC(C)[C@@H]1NC(=O)[C@@H]2CCCN2C(=O)[C@H]2CCCN2C(=O)[C@H](CO)NC(=O)[C@@H]2CCn3cc(nn3)C[C@H](NC1=O)C(=O)N[C@@H](Cc1ccc(O)cc1)C(=O)N[C@@H](CCN)C(=O)N[C@@H](CN)C(=O)N[C@H](CCN)C(=O)N[C@@H](CCN)C(=O)N[C@@H](Cc1c[nH]c3ccccc13)C(=O)N[C@@H](CCN)C(=O)N[C@@H](C(C)(C)C)C(=O)N2 [Example 34] (cyclo(V[Pra]Y[Dab][Dap][dDab][Dab]W[Dab][Tle][Aha]S[dP]P); triazole 2-11)	0
CC(C)[C@@H]1NC(=O)[C@H](Cc2ccc(O)cc2)NC(=O)[C@@H](C)NC(=O)[C@H](CO)NC(=O)[C@@H]2CC(=O)NCC[C@H](NC1=O)C(=O)N[C@@H](Cc1ccc(O)cc1)C(=O)N[C@@H](CCN)C(=O)N[C@@H](CN)C(=O)N[C@H](CCN)C(=O)N[C@@H](CCN)C(=O)N[C@@H](Cc1c[nH]c3ccccc13)C(=O)N[C@@H](CN)C(=O)N[C@@H](C(C)(C)C)C(=O)N2 [Example 31] (cyclo(DS[dA]YV[Dab]Y[Dab][Dap][dDab][Dab]W[Dap][Tle]); lactam 1-6)	1
CC(C)C[C@@H]1NC(=O)[C@@H]2CCCN2C(=O)[C@@H](CCN)NC(=O)[C@H](CO)NC(=O)[C@H](C(C)C)NC(=O)[C@H](C(C)(C)C)NC(=O)[C@@H]2CC(=O)NCC[C@H](NC(=O)[C@H](Cc3ccc(O)cc3)NC(=O)[C@H](Cc3ccc(O)cc3)NC1=O)C(=O)N[C@@H](CCCN)C(=O)N[C@H](CCN)C(=O)N[C@@H](CCN)C(=O)N[C@@H](Cc1c[nH]c3ccccc13)C(=O)N2 [Example 41] (cyclo(D[Tle]VS[dDab]PLYY[Dab][Orn][dDab][Dab]W); lactam 1-10)	2
CC[C@H](C)[C@@H]1NC(=O)[C@H](C)NC(=O)[C@@H](CCN)NC(=O)[C@H](CO)NC(=O)[C@@H]2CSSC[C@H](NC1=O)C(=O)N[C@@H](Cc1ccc(O)cc1)C(=O)N[C@@H](CCN)C(=O)N[C@@H](CCCN)C(=O)N[C@H](CCN)C(=O)N[C@@H](CCN)C(=O)N[C@@H](Cc1c[nH]c3ccccc13)C(=O)N[C@@H](CCN)C(=O)N[C@@H](C(C)(C)C)C(=O)N2 [Example 13] (cyclo(AICY[Dab][Orn][dDab][Dab]W[Dab][Tle]CS[dDab]); disulfide 3-12)	1
CC[C@H](C)[C@@H]1NC(=O)[C@H](CCCNC(=N)N)NC(=O)[C@@H](CCN)NC(=O)[C@H](CO)NC(=O)[C@@H]2CSSC[C@H](NC1=O)C(=O)N[C@@H](Cc1ccc(O)cc1)C(=O)N[C@@H](CCN)C(=O)N[C@@H](CCCN)C(=O)N[C@H](CCN)C(=O)N[C@@H](CCN)C(=O)N[C@@H](Cc1c[nH]c3ccccc13)C(=O)N[C@@H](CCN)C(=O)N[C@@H](C(C)(C)C)C(=O)N2 [Example 12] (cyclo(CS[dDab]RICY[Dab][Orn][dDab][Dab]W[Dab][Tle]); disulfide 1-6)	1
CC(C)[C@@H]1NC(=O)[C@@H]2CCCN2C(=O)[C@@H](C)NC(=O)[C@H](CO)NC(=O)[C@@H]2CC(=O)NCC[C@H](NC1=O)C(=O)N[C@@H](Cc1ccc(O)cc1)C(=O)N[C@@H](CCN)C(=O)N[C@@H](CN)C(=O)N[C@H](CCN)C(=O)N[C@@H](CCN)C(=O)N[C@@H](Cc1c[nH]c3ccccc13)C(=O)N[C@@H](CCN)C(=O)N[C@@H](C(C)(C)C)C(=O)N2 [Example 27] (cyclo(DS[dA]PV[Dab]Y[Dab][Dap][dDab][Dab]W[Dab][Tle]); lactam 1-6)	2
CC[C@H](C)[C@@H]1NC(=O)[C@@H]2CCCN2C(=O)[C@@H](CCN)NC(=O)[C@H](CO)NC(=O)[C@H](C)NC(=O)[C@H](C(C)(C)C)NC(=O)[C@H](CCN)NC(=O)[C@H](Cc2c[nH]c3ccccc23)NC(=O)[C@H](CCN)NC(=O)[C@@H](CCN)NC(=O)[C@H](CCCN)NC(=O)[C@H](CCN)NC(=O)[C@H](Cc2ccc(O)cc2)NC(=O)[C@H]([C@@H](C)O)NC1=O [Example 48] (cyclo(AS[dDab]PITY[Dab][Orn][dDab][Dab]W[Dab][Tle]))	1

*Q* What does the record list as Hemolysis at 100 μg/mL for CC(C)[C@@H]1NC(=O)[C@@H]2CCCN2C(=O)[C@@H](C)NC(=O)[C@H]([C@@H](C)O)NC(=O)[C@H](CO)NC(=O)[C@H](C(C)(C)C)NC(=O)[C@H](CCN)NC(=O)[C@H](Cc2c[nH]c3ccccc23)NC(=O)[C@H](CCN)NC(=O)[C@@H](CCN)NC(=O)[C@H](CCN)NC(=O)[C@H](CCN)NC(=O)[C@H](Cc2ccc(O)cc2)NC(=O)[C@H](CN)NC1=O [Example 46] (cyclo([Dab][Dab][dDab][Dab]W[Dab][Tle]ST[dA]PV[Dap]Y)) ?
*A* 0

*Q* Try the molecule CC(C)[C@@H]1NC(=O)[C@@H]2CSSC[C@H](NC(=O)[C@H](C3CCCC3)NC(=O)[C@H](CCCNC(=N)N)NC(=O)[C@@H](CCN)NC1=O)C(=O)N[C@@H](Cc1ccc(O)cc1)C(=O)N[C@@H](CC(N)=O)C(=O)N[C@@H](CCCN)C(=O)N[C@H](CCN)C(=O)N[C@@H](CCN)C(=O)N[C@@H](Cc1c[nH]c3ccccc13)C(=O)N[C@@H](CO)C(=O)N[C@@H](Cc1ccc(O)cc1)C(=O)N2 [Example 59] (cyclo(CV[dDab]R[Gly(cPent)]CYN[Orn][dDab][Dab]WSY); disulfide 1-6)
*A* 1
